B1: PWWP2B (parent)
chain: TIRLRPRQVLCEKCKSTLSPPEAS

# Variants of: B1
# TEST: protein stability index of a GFP-peptide fusion (GPS, HEK-293T) (PSI 1-6); higher = more stable;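 further: lentivirally expressed fusions sorted by FACS into six bins by GFP to DsRed ratio, PSI derived from sequencing read proportions per bin multiplied by bin number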
# COND: c terminus: a fixed tail appended
METRIC: protein stability index
In your answer, state the number alone without any accompanying words.

| MUTATION ANNOTATION | protein stability index |
| --- | --- |
| C11W | 2.23 |
| C14A | 3.85 |
| S24W | 1.93 |
| V9M | 2.73 |

// protein stability index lookup, variant = R5G , result: 3.37

// protein stability index lookup, variant = S24A , result: 2.64
